Assign Relative amount of hydrolysis metabolite formed, hCES1c to each entry below.
biological target: hCES1c (Homo sapiens); assay: Initial activity screening with recombinant hCES1c; conditions: 100 µM substrate, 30 min, 37 °C, 0.2 µg/µL protein, LC–ITMS, mean n = 2
Numbers only, in %.

C=CCCCn1cc(C(=O)N[C@H](C(=O)OC)C(C)C)c2ccccc21 [MMB-4en-PICA]    5.7

Would you mind listing Relative amount of hydrolysis metabolite formed, hCES1c for each of the following compounds?
1. COc1ccc2c3c1O[C@H]1C(OC(C)=O)=CC[C@H]4[C@@H](C2)N(C)CC[C@]314 [Thebacon, reference compound]
2. COC(=O)C(Cc1ccccc1)NC(=O)c1cn(CCCCCF)c2ccccc12 (stereo not drawn) [MPhP-5F-PICA]

Result block:
1. 10
2. 20

----------
assay: Initial activity screening with pooled human liver microsomes; settings: 100 µM substrate, 30 min, 37 °C, 2 µg/µL protein, LC–ITMS, mean n = 2
resultType: Relative amount of hydrolysis metabolite formed, pHLM

COC(=O)[C@@H](NC(=O)c1cn(Cc2ccc(F)cc2)c2ccccc12)C(C)(C)C    around 1%
C=CCCCn1nc(C(=O)N[C@H](C(=O)OC)C(C)(C)C)c2ccccc21    around 1%
COC(=O)[C@@H](NC(=O)c1nn(CCCCF)c2ccccc12)C(C)(C)C    4.3%

----------
molecular target: hCES1b (Homo sapiens, UniProt P23141); experiment: Initial activity screening with recombinant hCES1b; conditions: 100 µM substrate, 30 min, 37 °C, 0.2 µg/µL protein, LC–ITMS, mean n = 2
resultType: Relative amount of hydrolysis metabolite formed, hCES1b (%)
One number for each entry, in %.

C=CCCCn1cc(C(=O)N[C@H](C(=O)OC)C(C)C)c2ccccc21    1.5
COc1ccc2c3c1O[C@H]1C(OC(C)=O)=CC[C@H]4[C@@H](C2)N(C)CC[C@]314 [Thebacon, reference compound]    47

Next molecule, Relative amount of hydrolysis metabolite formed, hCES1b to be filled in.
Query block: Give its Relative amount of hydrolysis metabolite formed, hCES1b value. Item: COC(=O)C(Cc1ccccc1)NC(=O)c1cn(CCCCCF)c2ccccc12 (centres unmarked)
Result block: 19

----------
Target: hCES1c (Homo sapiens)
Sequence (P23141 18-566 isoform P23141-3 limits assumed): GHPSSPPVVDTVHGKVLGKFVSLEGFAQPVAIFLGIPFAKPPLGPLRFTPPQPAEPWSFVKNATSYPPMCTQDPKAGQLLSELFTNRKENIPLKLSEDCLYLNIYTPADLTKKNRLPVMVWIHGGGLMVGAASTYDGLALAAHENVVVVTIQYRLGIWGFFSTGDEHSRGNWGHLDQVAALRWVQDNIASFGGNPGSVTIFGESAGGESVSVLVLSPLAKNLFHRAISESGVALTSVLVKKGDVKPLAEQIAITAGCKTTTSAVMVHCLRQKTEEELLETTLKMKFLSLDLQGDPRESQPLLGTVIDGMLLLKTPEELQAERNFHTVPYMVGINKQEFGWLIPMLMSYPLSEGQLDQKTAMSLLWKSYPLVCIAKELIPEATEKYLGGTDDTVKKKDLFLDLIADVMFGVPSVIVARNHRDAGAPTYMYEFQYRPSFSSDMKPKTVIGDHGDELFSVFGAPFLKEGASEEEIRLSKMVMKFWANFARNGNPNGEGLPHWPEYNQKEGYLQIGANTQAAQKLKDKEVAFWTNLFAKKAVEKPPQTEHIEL
Experiment: Initial activity screening with recombinant hCES1c
Conditions: 100 µM substrate, 30 min, 37 °C, 0.2 µg/µL protein, LC–ITMS
resultType: Hydrolysis of carboxamide/ester in head group, hCES1c

C=CCCCn1nc(C(=O)N[C@H](C(=O)OC)C(C)(C)C)c2ccccc21 [MDMB-4en-PINACA]    +
COC(=O)C(Cc1ccccc1)NC(=O)c1cn(CCCCCF)c2ccccc12 (centres unmarked) [MPhP-5F-PICA]    +
COC(=O)[C@@H](NC(=O)c1nn(CCCCF)c2ccccc12)C(C)(C)C [MDMB-4F-BINACA]    +
COC(=O)[C@@H](NC(=O)c1cn(CCCCCF)c2ccccc12)C(C)(C)C [MDMB-5F-PICA]    −
COC(=O)[C@@H](NC(=O)c1cn(Cc2ccc(F)cc2)c2ccccc12)C(C)(C)C [MDMB-FUBICA]    +
CC(C)[C@H](NC(=O)c1cn(CCCCCF)c2ncccc12)C(N)=O [AB-5F-P7AICA]    −
CC(C)[C@H](NC(=O)c1cc(-c2ccc(F)cc2)nn1CCCCCF)C(N)=O [3,5-AB-5F-FUPPYCA]    −

Next molecule, Hydrolysis of carboxamide/ester in head group, hCES1c to be filled in.
Query block: Give its Hydrolysis of carboxamide/ester in head group, hCES1c value. Item: C=CCCCn1cc(C(=O)N[C@H](C(=O)OC)C(C)C)c2ccccc21 [MMB-4en-PICA]
Result block: +

----------
target: hCES2 (Homo sapiens); assay: Initial activity screening with recombinant hCES2; conditions: 100 µM substrate, 30 min, 37 °C, 0.2 µg/µL protein, LC–ITMS
Sequence (O00748 27-559): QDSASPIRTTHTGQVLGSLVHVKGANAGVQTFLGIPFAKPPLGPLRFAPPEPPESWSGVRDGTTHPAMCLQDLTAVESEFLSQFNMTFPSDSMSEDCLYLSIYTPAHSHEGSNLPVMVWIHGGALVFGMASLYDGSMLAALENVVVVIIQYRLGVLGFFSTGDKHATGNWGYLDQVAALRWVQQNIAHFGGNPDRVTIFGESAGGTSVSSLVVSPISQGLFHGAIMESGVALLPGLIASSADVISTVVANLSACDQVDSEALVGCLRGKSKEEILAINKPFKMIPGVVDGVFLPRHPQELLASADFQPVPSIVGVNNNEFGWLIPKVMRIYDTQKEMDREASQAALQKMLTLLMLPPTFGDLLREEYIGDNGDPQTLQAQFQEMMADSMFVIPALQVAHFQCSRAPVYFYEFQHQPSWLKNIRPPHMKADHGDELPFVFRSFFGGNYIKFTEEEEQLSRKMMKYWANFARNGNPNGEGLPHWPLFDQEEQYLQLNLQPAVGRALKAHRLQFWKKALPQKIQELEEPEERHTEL
resultType: Hydrolysis of carboxamide/ester in head group, hCES2

CC(C)[C@H](NC(=O)c1cn(CCCCCF)c2ncccc12)C(N)=O    −
COC(=O)C(Cc1ccccc1)NC(=O)c1cn(CCCCCF)c2ccccc12 (stereo not shown)    +
C=CCCCn1cc(C(=O)N[C@H](C(=O)OC)C(C)C)c2ccccc21    +
CC(C)[C@H](NC(=O)c1cc(-c2ccc(F)cc2)nn1CCCCCF)C(N)=O    −

----------
Target: hCES1b (Homo sapiens, UniProt P23141)
Sequence (P23141 18-567): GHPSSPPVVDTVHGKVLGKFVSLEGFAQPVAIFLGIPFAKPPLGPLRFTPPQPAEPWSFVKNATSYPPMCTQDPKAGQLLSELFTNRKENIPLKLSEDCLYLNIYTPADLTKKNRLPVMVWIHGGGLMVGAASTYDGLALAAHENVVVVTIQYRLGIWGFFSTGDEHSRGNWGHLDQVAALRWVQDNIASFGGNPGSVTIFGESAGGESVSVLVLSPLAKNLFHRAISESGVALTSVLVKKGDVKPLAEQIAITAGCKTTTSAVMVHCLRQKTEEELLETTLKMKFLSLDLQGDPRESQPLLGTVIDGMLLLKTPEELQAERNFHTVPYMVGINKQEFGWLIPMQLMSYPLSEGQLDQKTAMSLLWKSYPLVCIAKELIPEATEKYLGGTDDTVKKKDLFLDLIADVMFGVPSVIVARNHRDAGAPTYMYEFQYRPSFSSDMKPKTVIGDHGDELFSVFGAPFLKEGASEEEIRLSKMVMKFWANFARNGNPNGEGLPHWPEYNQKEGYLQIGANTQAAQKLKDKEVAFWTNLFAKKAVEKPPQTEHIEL
Experiment: Initial activity screening with recombinant hCES1b
Details: 100 µM substrate, 30 min, 37 °C, 0.2 µg/µL protein, LC–ITMS
resultType: Hydrolysis of carboxamide/ester in head group, hCES1b

Before answering, review these 5 worked examples.
C=CCCCn1nc(C(=O)N[C@H](C(=O)OC)C(C)(C)C)c2ccccc21    +
COC(=O)[C@@H](NC(=O)c1cn(Cc2ccc(F)cc2)c2ccccc12)C(C)(C)C    −
C=CCCCn1cc(C(=O)N[C@H](C(=O)OC)C(C)C)c2ccccc21    +
COC(=O)[C@@H](NC(=O)c1nn(CCCCF)c2ccccc12)C(C)(C)C    +
CC(C)[C@H](NC(=O)c1cn(CCCCCF)c2ncccc12)C(N)=O    −

Would you mind listing Hydrolysis of carboxamide/ester in head group, hCES1b for each of the following molecules?
1. CC(C)[C@H](NC(=O)c1cc(-c2ccc(F)cc2)nn1CCCCCF)C(N)=O
2. COC(=O)C(Cc1ccccc1)NC(=O)c1cn(CCCCCF)c2ccccc12 (centres unmarked)
3. COC(=O)[C@@H](NC(=O)c1cn(CCCCCF)c2ccccc12)C(C)(C)C

Result block:
−
+
−

----------
assay: Initial activity screening with pooled human liver S9 fraction; settings: 100 µM substrate, 30 min, 37 °C, 2 µg/µL protein, LC–ITMS, mean n = 2
resultType: Relative amount of hydrolysis metabolite formed, pHLS9

C=CCCCn1cc(C(=O)N[C@H](C(=O)OC)C(C)C)c2ccccc21 [MMB-4en-PICA]    11%
COC(=O)[C@@H](NC(=O)c1cn(Cc2ccc(F)cc2)c2ccccc12)C(C)(C)C [MDMB-FUBICA]    around 1%
C=CCCCn1nc(C(=O)N[C@H](C(=O)OC)C(C)(C)C)c2ccccc21 [MDMB-4en-PINACA]    around 1%
COC(=O)[C@@H](NC(=O)c1nn(CCCCF)c2ccccc12)C(C)(C)C [MDMB-4F-BINACA]    around 1%
